procedure_summary: Pharmacokinetics of TET in blood after a single i.v. administration in normal and LPS-induced ALI mice
cond: male, BALB/c, mouse, in vivo, iv, 5 mg/kg, LPS-treated mice; 5 mg/kg i.v.; blood; read-out: MRT(0-t)
experimental_endpoint: MRT last (h)
Your answer should be a plain number; it is taken to be in h.

Exercise: Tell me measured MRT last for COc1ccc2cc1Oc1ccc(cc1)C[C@H]1c3cc(c(OC)cc3CCN1C)Oc1c(OC)c(OC)cc3c1[C@H](C2)N(C)CC3 please.
Key: 137

====

procedure_summary: Tissue distribution of TET after a single i.t. administration in normal and LPS-treated mice
cond: BALB/c, mouse, lung, inhaled or intranasal, 15 mg/kg, t1/2, normal mice; 15 mg/kg i.t.
experimental_endpoint: half-life (days)
Dear colleague, please return just the value in days, with no unit written.

Exercise: Tell me half-life reported for COc1ccc2cc1Oc1ccc(cc1)C[C@H]1c3cc(c(OC)cc3CCN1C)Oc1c(OC)c(OC)cc3c1[C@H](C2)N(C)CC3
Key: 2.71

====

procedure_summary: Tissue distribution of TET after a single i.t. administration in normal and LPS-treated mice
cond: BALB/c, mouse, stomach, inhaled or intranasal, 15 mg/kg, Tmax, LPS-treated mice; 15 mg/kg i.t.
experimental_endpoint: Tmax
Give me the value, and tack the unit on after it.

Exercise: Specify reported Tmax for the compound shown: COc1ccc2cc1Oc1ccc(cc1)C[C@H]1c3cc(c(OC)cc3CCN1C)Oc1c(OC)c(OC)cc3c1[C@H](C2)N(C)CC3 [TET, Tetrandrine]
Key: 3.33 h

====

procedure_summary: Tissue distribution of TET after a single i.t. administration in normal and LPS-treated mice
cond: BALB/c, mouse, heart, inhaled or intranasal, 15 mg/kg, MRT, normal mice; 15 mg/kg i.t.
experimental_endpoint: MRT (h)
The response must be a number in h with no trailing unit.

Exercise: Give me measured MRT, please, for this molecule: COc1ccc2cc1Oc1ccc(cc1)C[C@H]1c3cc(c(OC)cc3CCN1C)Oc1c(OC)c(OC)cc3c1[C@H](C2)N(C)CC3 [TET, Tetrandrine]
Key: 137

====

procedure_summary: Tissue distribution of TET after a single i.t. administration in normal and LPS-treated mice
cond: BALB/c, mouse, blood, inhaled or intranasal, 15 mg/kg, MRT, LPS-treated mice; 15 mg/kg i.t.
experimental_endpoint: MRT (h)
Expressed in h, but write only the number.

Exercise: Answer with reported MRT of COc1ccc2cc1Oc1ccc(cc1)C[C@H]1c3cc(c(OC)cc3CCN1C)Oc1c(OC)c(OC)cc3c1[C@H](C2)N(C)CC3 [TET, Tetrandrine]
Key: 133

====

procedure_summary: Tissue distribution of TET after a single i.t. administration in normal and LPS-treated mice
cond: BALB/c, mouse, kidney, inhaled or intranasal, 15 mg/kg, MRT, normal mice; 15 mg/kg i.t.
experimental_endpoint: MRT (h)
# number only, unit h dropped from output

Exercise: Indicate its recorded MRT; the compound in question is COc1ccc2cc1Oc1ccc(cc1)C[C@H]1c3cc(c(OC)cc3CCN1C)Oc1c(OC)c(OC)cc3c1[C@H](C2)N(C)CC3
Key: 80.1

====

procedure_summary: Tissue distribution of TET after a single i.t. administration in normal and LPS-treated mice
cond: BALB/c, mouse, kidney, inhaled or intranasal, 15 mg/kg, Cmax, LPS-treated mice; 15 mg/kg i.t.
experimental_endpoint: Cmax (µg/mL)
# unit: µg/mL | format: bare number

Exercise: Using the record for COc1ccc2cc1Oc1ccc(cc1)C[C@H]1c3cc(c(OC)cc3CCN1C)Oc1c(OC)c(OC)cc3c1[C@H](C2)N(C)CC3 , state its measured Cmax.
Key: 112
